Exercise: state measured fold change (FC) for each of the compounds provided.
target: Toll-like receptor 7 (Homo sapiens) (UniProt Q9NYK1); test: Agonist activity at TLR7 in human PBMC assessed as induction of plasmacytoid dendritic cell maturation by measuring increase in CD86 level at 0.1 uM after 6 hrs by flow cytometry relative to control; format: cell-based
Sequence (Q9NYK1 whole entry): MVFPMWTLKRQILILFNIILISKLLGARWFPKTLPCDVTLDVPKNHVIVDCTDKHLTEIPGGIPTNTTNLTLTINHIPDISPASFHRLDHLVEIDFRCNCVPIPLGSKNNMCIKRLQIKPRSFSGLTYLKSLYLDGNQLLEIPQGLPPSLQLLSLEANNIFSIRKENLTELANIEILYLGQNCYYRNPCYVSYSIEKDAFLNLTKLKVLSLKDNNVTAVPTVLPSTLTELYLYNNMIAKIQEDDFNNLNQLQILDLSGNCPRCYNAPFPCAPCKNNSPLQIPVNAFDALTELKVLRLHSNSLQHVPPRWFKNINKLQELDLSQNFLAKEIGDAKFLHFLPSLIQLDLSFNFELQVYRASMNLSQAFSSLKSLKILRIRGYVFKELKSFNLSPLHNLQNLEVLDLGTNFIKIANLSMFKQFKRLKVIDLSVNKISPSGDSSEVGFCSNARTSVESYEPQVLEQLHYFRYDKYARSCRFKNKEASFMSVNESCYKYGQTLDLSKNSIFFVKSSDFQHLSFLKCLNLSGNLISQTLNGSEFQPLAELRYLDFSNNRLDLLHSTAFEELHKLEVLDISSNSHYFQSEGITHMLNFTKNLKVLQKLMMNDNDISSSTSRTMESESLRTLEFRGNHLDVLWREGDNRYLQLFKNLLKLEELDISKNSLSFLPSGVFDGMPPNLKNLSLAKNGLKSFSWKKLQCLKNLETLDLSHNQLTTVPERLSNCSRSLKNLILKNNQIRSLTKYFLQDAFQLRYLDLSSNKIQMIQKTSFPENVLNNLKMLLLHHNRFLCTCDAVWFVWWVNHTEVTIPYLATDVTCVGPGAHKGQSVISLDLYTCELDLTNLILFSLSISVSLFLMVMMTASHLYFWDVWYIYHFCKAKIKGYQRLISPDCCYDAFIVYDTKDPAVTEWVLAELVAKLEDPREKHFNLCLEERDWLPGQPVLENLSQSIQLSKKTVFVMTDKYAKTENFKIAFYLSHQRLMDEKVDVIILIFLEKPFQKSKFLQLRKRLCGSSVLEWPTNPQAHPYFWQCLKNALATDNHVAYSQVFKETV
Lab note: jot down the number only; don't add units.

Supply fold change (FC) value. Item: CCCCOc1nc(N)c2[nH]c(=O)n(CC3CCNCC3)c2n1
1.4

Supply fold change (FC) value. Item: CCC[C@H](C)Oc1nc(N)c2[nH]c(=O)n(CC3CCNCC3)c2n1
2
